- Tested System: HLA-B*4001 (human)
- Assay Overview: competition binding assay, purified HLA class I
- Test Parameters: remark: other sources report otherwise
Measured Endpoint: pIC50
Kindly note that pIC50 refers to -log10 of the concentration in mol/L and answer with the value alone.

These solved cases illustrate the format of a correct answer.
{"Binder": "VETSYVKVL [… (MAGE3 position 279, 9-mer)]", "pIC50": 8.11}
{"Binder": "WEELSVLEVF [… (MAGE3 position 222, 10-mer)]", "pIC50": 7.12}

Next up:
Supply pIC50 value. Item: EEKIWEELSVL [… (MAGE3 position 218, 11-mer)] 7.60
